- assay-target: T1, Human CD47-C33G (human, UniProt Q08722 19-135)
- T1 construct: also called CD47 mutein with C33G mutation
- T1 sequence (Q08722 19-135 C33G limits assumed): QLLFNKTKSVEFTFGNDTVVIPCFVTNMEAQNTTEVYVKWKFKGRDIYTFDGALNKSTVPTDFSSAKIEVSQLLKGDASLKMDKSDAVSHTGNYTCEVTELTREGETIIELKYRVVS
- procedure-summary: SPR, IgG captured, CD47 in flow; exp 4;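 also: biacore T200 SPR using IgG from transfected HEK293 supernatants against wild-type human CD47 or its C33G mutein, rates fitted to association and dissociation curves, KD estimated from them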
metric-name: Kd (nM)
// units = nM; emit number, no label

binder	value-measured
108VH5.M22 / 108VL1.M5 (antibody, human IgG4 S228P, kappa, V domains shown, Full-length IgG4 (S228P), kappa; also called VH5.M22 VL1.M5) VH: EVQLVQSGAEVKKPGASVKVSCKASGYTFTHHWMHWVRQAPGQGLEWMGMIDASDIETRYAQKFQGRVTMTRDTSTSTVYMELSSLRSEDTAVYYCARLGRYYFDYWGQGTLVTVSS VL: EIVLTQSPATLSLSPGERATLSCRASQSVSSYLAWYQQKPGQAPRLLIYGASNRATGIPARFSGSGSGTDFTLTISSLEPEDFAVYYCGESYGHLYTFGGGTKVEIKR	35
108VH5.M20 / 108VL1.M5 (antibody, human IgG4 S228P, kappa, V domains shown, Full-length IgG4 (S228P), kappa; also called VH5.M20 VL1.M5) VH: EVQLVQSGAEVKKPGASVKVSCKASGYTFTHHWMHWVRQAPGQGLEWMGMIDASDAETRYAQKFQGRVTMTRDTSTSTVYMELSSLRSEDTAVYYCARLGRYYFDYWGQGTLVTVSS VL: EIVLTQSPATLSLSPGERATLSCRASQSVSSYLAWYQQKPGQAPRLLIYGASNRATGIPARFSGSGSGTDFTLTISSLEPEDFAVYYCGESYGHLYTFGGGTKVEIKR	15
108VH5.M23 / 108VL1.M5 (antibody, human IgG4 S228P, kappa, V domains shown, Full-length IgG4 (S228P), kappa; also called VH5.M23 VL1.M5) VH: EVQLVQSGAEVKKPGASVKVSCKASGYTFTHHWMHWVRQAPGQGLEWMGMIDASDKETRYAQKFQGRVTMTRDTSTSTVYMELSSLRSEDTAVYYCARLGRYYFDYWGQGTLVTVSS VL: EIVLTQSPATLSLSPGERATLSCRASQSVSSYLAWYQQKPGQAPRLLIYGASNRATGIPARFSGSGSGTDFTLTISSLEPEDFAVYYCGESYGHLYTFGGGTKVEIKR	33

Now let's try a different one.
Sample chimeric antibody 108C10A6 (antibody, V domains shown, Chimeric antibody with mouse variable domains; captured through human Fc; also called VH / VL) VH: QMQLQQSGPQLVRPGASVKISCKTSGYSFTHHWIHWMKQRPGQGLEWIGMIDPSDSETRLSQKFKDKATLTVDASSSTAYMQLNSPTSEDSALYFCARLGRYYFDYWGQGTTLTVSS VL: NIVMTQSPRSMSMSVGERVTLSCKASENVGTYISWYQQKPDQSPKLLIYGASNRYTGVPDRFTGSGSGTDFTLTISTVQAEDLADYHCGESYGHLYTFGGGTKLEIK — what was its Kd?
0.67

Each recorded value in this set is attributed to patent US20260132197A1.
